Assay: NCI Yeast Anticancer Drug Screen. Data for the bub3 strain (AID 167)
Conditions: S. cerevisiae bub3 mutant strain, at 50.0 µM (retest, dose inferred, filed as 5.0)
Compounds without any hit were thinned out: in the full panel of roughly 79,000, 15% have a hit. Calls of active or inactive are those of the source. No stated cut-off is given here; in the data, active means growth inhibition above about 70%; inactive means the rest.
Please answer using one outcome listed in True for active, False for inactive

| compound | group label |
| --- | --- |
| COc1ccc2cc(CNCCCCCCCCNCc3ccc4cc(OC)ccc4c3)ccc2c1 | True |
| CCN(CC)CCN(C)c1ccc(CO)c2c1C(=O)c1ccccc1S2=O (centres undefined) | False |
| Cc1cc(Cl)c(C(C)C)cc1O | False |
| C[Si](C)(C)CC(c1ccccc1)C(O)c1ccccc1 (centres undefined) | True |
| COC(=O)c1ccc2c(c1)C(O)NC(=O)O2 (centres undefined) | True |

Hi team, can someone confirm the assay call for O=C(NNc1nc(-c2ccccc2)cs1)C(F)(F)F ?
True

Hi team, can someone confirm the assay call for CCCCCCC(C)S(=O)(=O)c1ccc(C)cc1 (centres undefined) ?
False

Hi team, can someone confirm the assay call for ClC(Cl)(Cl)C(NCCN1CCOCC1)c1ccccc1 (centres undefined) ?
True

Hi team, can someone confirm the assay call for O=C1c2cc([N+](=O)[O-])ccc2-c2cc([N+](=O)[O-])ccc21 ?
True

Hi team, can someone confirm the assay call for CCc1c(C)[nH]c2c([N+](=O)[O-])cccc12 ?
False

Hi team, can someone confirm the assay call for Clc1ccccc1NN(Cc1ccccn1)c1ccccc1Cl ?
True

Hi team, can someone confirm the assay call for CC(Nc1cc(Cl)cc(Cl)c1)c1ccncc1 (centres undefined) ?
True

Hi team, can someone confirm the assay call for CCN(CC)CCCC(C)Nc1c2ccccc2nc2c(C)cc(Br)cc12 (centres undefined) ?
True
